- procedure-text: Cytotoxicity against C57BL6 mouse peritoneal cells assessed as cell viability measured at 5 hrs time interval by LDH release assay (reference value: 98.9 +/- 1.6%)
- Format: cell-based
- condition-summary: read-out: Activity
measured-property: viability at 5 h (%)
Please reply with the bare figure in % and do not write the unit itself.

Worked examples follow.
smiles-string: Cc1ccc(-c2cc(-c3ccccc3)nc(N)n2)cc1
unit-descriptor: %
viability at 5 h: 103
//
smiles-string: CCCCc1c(Cl)nc(N)nc1-c1ccc(C)cc1
unit-descriptor: %
viability at 5 h: 101
//
smiles-string: CCCCc1c(-c2ccc(OC)cc2)nc(N)nc1-c1ccc(OC)cc1
unit-descriptor: %
viability at 5 h: 99.1
//
smiles-string: Cc1ccc(-c2cc(-c3ccc(C)cc3)nc(N)n2)cc1
unit-descriptor: %
viability at 5 h: 103
//
smiles-string: CCCCc1c(-c2ccccc2)nc(N)nc1-c1ccc(C)cc1
unit-descriptor: %
viability at 5 h: 102
//
smiles-string: CCCCc1c(-c2ccccc2)nc(N)nc1-c1ccc(OC)cc1
unit-descriptor: %
viability at 5 h: 102

Query viability at 5 h for COc1ccc(-c2cc(-c3ccccc3)nc(N)n2)cc1 99.9

Return value of viability at 5 h for input CCCCc1c(Cl)nc(N)nc1Cl , no commentary. 99.8

Answer with the recorded viability at 5 h for the compound listed here: COc1ccc(-c2cc(-c3ccc(OC)cc3)nc(N)n2)cc1 102

###

- procedure-text: Cytotoxicity against C57BL6 mouse peritoneal cells assessed as cell viability measured at 5 hrs time interval by LDH release assay (reference value: 98.9 +/- 1.6%)
- Assay type: cell-based
- condition-summary: read-out: Activity
measured-property: viability at 5 h (%)
Hi! Could you send only the number? It should be in %, unit omitted.

The following compounds have reported results that may help.
smiles-string: Cc1ccc(-c2cc(Cl)nc(N)n2)cc1
unit-descriptor: %
viability at 5 h: 103
//
smiles-string: CCCCc1c(Cl)nc(N)nc1-c1ccc(OC)cc1
unit-descriptor: %
viability at 5 h: 96.6
//
smiles-string: Nc1nc(-c2ccccc2)cc(-c2ccccc2)n1
unit-descriptor: %
viability at 5 h: 97.4

Now for a further compound.
Given the compound COc1ccc(-c2cc(Cl)nc(N)n2)cc1 , write its reported viability at 5 h. 103

Value source: ChEMBL document CHEMBL4270549
